Biological target: adenosine A2a receptor (Homo sapiens (Human), UniProt P29274)
Sequence (P29274 whole entry): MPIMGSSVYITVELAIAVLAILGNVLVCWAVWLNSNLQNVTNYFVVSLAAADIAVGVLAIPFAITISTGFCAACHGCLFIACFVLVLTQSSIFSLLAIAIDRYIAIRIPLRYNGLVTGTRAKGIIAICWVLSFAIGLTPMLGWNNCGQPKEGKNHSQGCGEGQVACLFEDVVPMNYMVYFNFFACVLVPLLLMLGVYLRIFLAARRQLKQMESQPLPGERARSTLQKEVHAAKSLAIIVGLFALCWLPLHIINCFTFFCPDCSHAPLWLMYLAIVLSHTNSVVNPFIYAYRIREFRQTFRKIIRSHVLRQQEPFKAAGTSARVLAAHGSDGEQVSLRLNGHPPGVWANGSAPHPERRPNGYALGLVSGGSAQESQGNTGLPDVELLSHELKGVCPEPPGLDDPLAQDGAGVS
Test: Indirect determination of adenosine agonism by gene expression (luciferase reporter), A2a cells
Details: CHO cells stably transfected with adenosine A2a receptor, 50% of maximum stimulation
endpointLabel: EC50 (nM)

Please review the following examples before continuing.
> print(dat)
                                 smilesrepr  endpointlabel  reportedvalue
1  CNC(=O)c1cc(CSc2ncc(C#N)c(-c3ccc(OCCO)cc3)c2C#N)ccn1           EC50           1110
2  CNC(=O)c1cc(CSc2nc(N(C)CCO)c(C#N)c(-c3ccccc3)c2C#N)ccn1           EC50           1010

[A] CNC(=O)c1cc(CSc2nc(N)c(C#N)c(-c3ccc(OS(=O)(=O)N(C)C)cc3)c2C#N)ccn1
[B] N#Cc1c(N)nc(SCc2cccc(C(N)=O)c2)c(C#N)c1-c1ccccc1
# input Which of these two has the smaller recorded EC50: A or B ? Give the label of your selection.
# output B
